# Experimental target: T1, ICAM-1-Fcγ (ICAM-1 residues of 1-480 fused to the Fc of human IgG, R&D Systems) (human, UniProt P05362 28-480)
# T1 construct: range 1-480; Bought (R&D Systems); also called ICAM-1-Fcγ chimera; not shown: Fc of human IgG
# T1 sequence (P05362 28-480 limits assumed, form in doubt): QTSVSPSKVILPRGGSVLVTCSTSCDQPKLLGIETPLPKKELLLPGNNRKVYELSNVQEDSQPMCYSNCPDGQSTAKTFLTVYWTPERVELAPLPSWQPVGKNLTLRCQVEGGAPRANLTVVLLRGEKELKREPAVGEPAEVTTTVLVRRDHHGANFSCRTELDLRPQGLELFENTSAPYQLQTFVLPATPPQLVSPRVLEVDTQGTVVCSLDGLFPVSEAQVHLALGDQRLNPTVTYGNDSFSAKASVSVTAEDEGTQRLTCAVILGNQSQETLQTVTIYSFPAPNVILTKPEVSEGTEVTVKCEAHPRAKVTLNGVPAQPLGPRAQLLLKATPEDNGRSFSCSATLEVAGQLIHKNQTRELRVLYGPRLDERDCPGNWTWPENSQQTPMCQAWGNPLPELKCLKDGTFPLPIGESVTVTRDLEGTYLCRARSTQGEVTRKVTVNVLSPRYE
# Measurement description: SPR (Biacore 3000), I domain injected over ICAM-1-Fcγ-coupled CM5 chip, 10 mM MgCl2
pKd: −log10 of the molar value.
// reported pKd per item
Recorded endpoint: pKd

INSERT INTO results (binder, result) VALUES
  ('soluble αL I domain mutant F292G, Asn-129 to Tyr-307 (receptor) NVDLVFLFDGSMSLQPDEFQKILDFMKDVMKKLSNTSYQFAAVQFSTSYKTEFDFSDYVKWKDPDALLKHVKHMLLLTNTFGAINYVATEVFREELGARPDATKVLIIITDGEATDSGNIDAAKDIIRYIIGIGKHFQTKESQETLHKFASKPASEFVKILDTGEKLKDLFTELQKKIY', 6.92),
  ('soluble αL I domain mutant F292A, Asn-129 to Tyr-307 (receptor) NVDLVFLFDGSMSLQPDEFQKILDFMKDVMKKLSNTSYQFAAVQFSTSYKTEFDFSDYVKWKDPDALLKHVKHMLLLTNTFGAINYVATEVFREELGARPDATKVLIIITDGEATDSGNIDAAKDIIRYIIGIGKHFQTKESQETLHKFASKPASEFVKILDTAEKLKDLFTELQKKIY', 4.70),
  ('soluble αL I domain mutant F265S, Asn-129 to Tyr-307 (receptor) NVDLVFLFDGSMSLQPDEFQKILDFMKDVMKKLSNTSYQFAAVQFSTSYKTEFDFSDYVKWKDPDALLKHVKHMLLLTNTFGAINYVATEVFREELGARPDATKVLIIITDGEATDSGNIDAAKDIIRYIIGIGKHSQTKESQETLHKFASKPASEFVKILDTFEKLKDLFTELQKKIY', 6.84),
  ('soluble αL I domain double mutant F265S/F292G, Asn-129 to Tyr-307 (receptor) NVDLVFLFDGSMSLQPDEFQKILDFMKDVMKKLSNTSYQFAAVQFSTSYKTEFDFSDYVKWKDPDALLKHVKHMLLLTNTFGAINYVATEVFREELGARPDATKVLIIITDGEATDSGNIDAAKDIIRYIIGIGKHSQTKESQETLHKFASKPASEFVKILDTGEKLKDLFTELQKKIY', 8.22);
